These entries and their values trace back to PubChem BioAssay AID1963845.

Test system: 429239-143-T-J1-PDC complex spheroid viability;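 also: luminescence signal used as surrogate measure of viable cells; spheroids exposed to compounds for seven days before readout; 100% = DMSO vehicle control viability as luminescence relative to vehicle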
Experiment: Anticancer human tumor 429239-143-T-J1-PDC patient-derived small cell lung carcinoma cell line growth inhibition [POLQ]
Conditions: second compound 0.0316 µM; first compound 10 µM; active compounds read low
Field: viability, T/C. Provide a value for each of the compounds that follow.
Answers are plain numbers, in %.

Parameter requested: viability, T/C. Apply to each item below.
1. CNCc1ccc(-c2[nH]c3cc(F)cc4c3c2CCNC4=O)cc1 + COC1C(OC(N)=O)C(O)C(Oc2ccc3c(O)c(NC(=O)c4ccc(O)c(CC=C(C)C)c4)c(=O)oc3c2C)OC1(C)C
2. CC(C)n1c(=O)n(C)c2cnc3cc(F)c(-c4ccc(OCCCN5CCCCC5)nc4)cc3c21 + Nc1ccc(C#CCN(C(=O)Cc2ncc(C(F)(F)F)cc2C(F)(F)F)c2ccc(F)cc2)nn1
3. O=c1[nH]cc(F)c(=O)[nH]1 + COC1C(OC(N)=O)C(O)C(Oc2ccc3c(O)c(NC(=O)c4ccc(O)c(CC=C(C)C)c4)c(=O)oc3c2C)OC1(C)C
4. Nc1ccn(C2OC(CO)C(O)C2(F)F)c(=O)n1 (stereo not given) + COC1C(OC(N)=O)C(O)C(Oc2ccc3c(O)c(NC(=O)c4ccc(O)c(CC=C(C)C)c4)c(=O)oc3c2C)OC1(C)C
5. CC1COCCN1c1cc(C2(O)CC3CCC(C2)O3)c2cnn(-c3ccn[nH]3)c2n1 (stereo not given) + COC1C(OC(N)=O)C(O)C(Oc2ccc3c(O)c(NC(=O)c4ccc(O)c(CC=C(C)C)c4)c(=O)oc3c2C)OC1(C)C

Out:
23.2
97.8
49
16.4
6.59
